Test: Measurement of the AB-permeability in a TC-7 based assay-system
Assay type: in vitro ADME
Settings: human, Caco-2, TC-7 cells, 50 μM, apical pH 6.5, basolateral pH 7.4, 120 min at 37° C.
Positions of bridges follow the written chain, without caps; N, C: chain ends. Non-standard residues stand in square brackets, D forms with d. Residues, ends and D or L forms follow the SMILES beside them. Hyp = O=C(O)[C@@H]1C[C@@H](O)CN1; dCha = N[C@H](CC1CCCCC1)C(=O)O; Orn = NCCC[C@H](N)C(=O)O
reportedMetric: Papp A→B at 120 min, 50 μM
Just the number plus its unit, please.

Ask: For the molecule shown here, CC(=O)N[C@@H](Cc1ccccc1)C(=O)N[C@H]1CCCNC(=O)[C@H](Cc2ccccc2)NC(=O)[C@H](Cc2c[nH]c3ccccc23)NC(=O)[C@@H](CC2CCCCC2)NC(=O)[C@@H]2C[C@@H](O)CN2C1=O [Compound 2, Ac-Phe-[Orn-Hyp-cha-Trp-Phe]] (Ac-F[Orn][Hyp][dCha]WF; lactam 2-C) , give the reported Papp A→B at 120 min, 50 μM.
Reply: 142 nm/s

* * *

Please respond with reported IC50 for every item in the list.
Molecular target: human C5aR(CD88) (Homo sapiens, UniProt P21730)
Construct: expressed in transfected cells; host or cells: rat basophilic leukemia cells (RBL)
Sequence (P21730 1-350): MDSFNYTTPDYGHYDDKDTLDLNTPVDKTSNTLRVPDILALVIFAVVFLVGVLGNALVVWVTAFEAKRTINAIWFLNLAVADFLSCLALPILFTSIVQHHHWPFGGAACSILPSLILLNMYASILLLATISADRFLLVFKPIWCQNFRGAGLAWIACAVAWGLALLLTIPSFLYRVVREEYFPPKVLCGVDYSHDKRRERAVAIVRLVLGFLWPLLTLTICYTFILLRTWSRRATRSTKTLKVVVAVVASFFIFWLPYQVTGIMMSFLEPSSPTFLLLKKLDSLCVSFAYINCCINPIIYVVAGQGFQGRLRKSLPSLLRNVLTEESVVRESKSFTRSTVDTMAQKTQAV
Experiment: Determination of the IC50 value in an enzyme release assay (functional assay, antagonistic activity)
Type: cell-based
Conditions: antagonistic activity; IC50 group in enzyme release assay, RBL cells expressing human C5aR(CD88); read-out: activity (group)
Positions of bridges follow the written chain, without caps; N, C: chain ends. Non-standard residues stand in square brackets, D forms with d. Residues, ends and D or L forms follow the SMILES beside them. Phe(3-Me) = Cc1cccc(C[C@H](N)C(=O)O)c1; Hyp = O=C(O)[C@@H]1C[C@@H](O)CN1; Cha = N[C@@H](CC1CCCCC1)C(=O)O; dCha = N[C@H](CC1CCCCC1)C(=O)O; Nle = CCCC[C@H](N)C(=O)O; Orn = NCCC[C@H](N)C(=O)O

Ask: For the molecule shown here, CCCC[C@@H]1NC(=O)[C@H](Cc2c[nH]c3ccccc23)NC(=O)[C@@H](CC2CCCCC2)NC(=O)[C@H](CC(N)=O)NC(=O)[C@@H](NC(=O)[C@H](Cc2ccccc2)NC(C)=O)CCCNC1=O [Compound 173, Ac-Phe-[Orn-Asn-cha-Trp-Nle]] (Ac-F[Orn]N[dCha]W[Nle]; lactam 2-C) , give the reported IC50.
Reply: 50 to 200 nM

Ask: For the molecule shown here, CC(=O)N[C@@H](Cc1ccccc1)C(=O)N[C@@H](CCCN)C(=O)N1CCC[C@H]1C(=O)N[C@H](CC1CCCCC1)C(=O)N[C@@H](Cc1c[nH]c2ccccc12)C(=O)N[C@@H](CC1CCCCC1)C(N)=O [Compound 65, Ac-Phe-Orn-Pro-cha-Trp-Cha-NH2] (Ac-F[Orn]P[dCha]W[Cha]-NH2) , give the reported IC50.
Reply: 50 to 200 nM

Ask: For the molecule shown here, CCCC[C@@H]1NC(=O)[C@H](Cc2c[nH]c3ccccc23)NC(=O)[C@H](Cc2cccc(C)c2)NC(=O)[C@@H]2C[C@@H](O)CN2C(=O)[C@@H](NC(=O)[C@H](Cc2ccccc2)NC(C)=O)CCCNC1=O [Compound 182, Ac-Phe-[Orn-Hyp-Mmf-Trp-Nle]] (Ac-F[Orn][Hyp][Phe(3-Me)]W[Nle]; lactam 2-C) , give the reported IC50.
Reply: 50 to 200 nM
